# GI50 per entry
system: U-251; test: NCI tumour cell line growth inhibition, 48 h
Activity calls are given as the source filed them. Cut-off read from the data, not from the text of the source: active = GI50 up to about 1.1 µM and inactive = higher.

compound	GI50
C=C(C)C(O)C(O)c1c(OC)ccc2ccc(=O)oc12 (stereo unspecified)	> 100 µM (inactive)
O=C(CCC(=O)Nc1cccc(C(F)(F)F)c1)CC(=O)c1ccc2ccccc2c1	> 100 µM (inactive)
C=CCn1c(-c2ccc([N+](=O)[O-])cc2)csc1=N	54.1 µM (inactive)
COC(=O)C1=C(C(=O)OC)C2=S(SC3=C2CCCC3)S1 (stereo unspecified)	19.6 µM (inactive)
N#CCCC1C(C#N)C2(Cl)CC1(Cl)C(Cl)=C2Cl (stereo unspecified)	> 10 µM (inactive)
CN(C)CC1(C)CC/C(=C\c2ccc3c(c2)OCO3)C1=O (stereo unspecified)	> 100 µM (inactive)

----------
# GI50 per entry
system: HOP-62; experiment: NCI tumour cell line growth inhibition, 48 h
Activity calls are given as the source filed them. Cut-off read from the data, not from the text of the source: active = GI50 up to about 1.1 µM and inactive = higher.

molecule	GI50
COC(=O)NC(Cc1ccccc1)NC(C)=O (stereo not given)	> 100 µM (inactive)
CC1OC(OC2C(CO)OC(O[C@H]3CC[C@@]4(C)C(=CC[C@H]5[C@@H]6C[C@@H]7O[C@](O)(CC[C@H](CO)COC8OC(CO)C(O)C(O)C8O)[C@@H](C)[C@@H]7[C@@]6(C)CC[C@@H]54)C3)C(OC3OC(C)C(O)C(O)C3O)C2O)C(O)C(O)C1O (stereo not given in full)	> 100 µM (inactive)
N[C@@H]1c2c(Br)sc(Br)c2C(=O)[C@H]1Br	50.4 µM (inactive)
C[C@@H]1O[C@@H]2OCC[C@@H]2C2=C1C(=O)c1ccccc1C2=O	17.3 µM (inactive)
C#CCCCC(=O)N(C(=O)C[S+]([O-])CC)c1ccccc1 (stereo not given)	> 100 µM (inactive)
O=C(CC(=O)c1cccc2ccccc12)C(=O)Nc1nccs1	> 100 µM (inactive)
COC(=O)C12C(=O)CC3CCC1C32C(=O)OC (stereo not given)	> 100 µM (inactive)
COc1cccc(C(NC2=NCCC=N2)c2cc3c(cc2O)OCO3)c1O (stereo not given)	25.7 µM (inactive)
CCOC(=O)Nc1cc(NC(/C=N/NC(C)=O)C(=O)OCC)c(OC)cc1NC(C)=O (stereo not given)	> 100 µM (inactive)
CCCc1c(OC)c(=O)c2c(OC)cc(OC)c3c4c(OC)cc(OC)c5c(=O)c(OC)c(CCC)c(c1c23)c54	18 µM (inactive)
CCN(CC)/C(SCc1ccccc1)=C(\C(Cl)=C(Cl)Cl)[N+](=O)[O-]	22 µM (inactive)
O=C(CCc1ccccc1)NS(=O)(=O)c1ccccc1	> 100 µM (inactive)
CCCCCCCC/C=C\CCCCCCC/C=C1\C[C@](/C=C/C(=O)OC)(CO)OC1=O	1.86 µM (inactive)
CC(C)(C)c1cc(O)c2c(c1O)C(=O)CCC2	22.8 µM (inactive)
Cn1c2ccccc2c2[nH]cc3nc4ccccc4c-3c21	> 100 µM (inactive)
NC1=NNC2(C(N)=N1)c1ccccc1-c1ccccc12	> 10 µM (inactive)
CCCn1cnc2c(SCc3ccc(Cl)cc3)nc(N)nc21	17.3 µM (inactive)
COc1cc2oc(=O)cc(C)c2cc1OC	> 100 µM (inactive)
C=C(C)C1CC2=C(O1)C(=O)c1ccccc1C2=O (stereo not drawn) [DEHYDROISO-ALPHA-LAPACHONE]	19.6 µM (inactive)
CC(C)(C)NCC(COc1ccc([N+](=O)[O-])cc1)OP(c1ccccc1)c1ccccc1 (stereo not given)	> 100 µM (inactive)

----------
# GI50 per entry
test system: UACC-257; assay: NCI tumour cell line growth inhibition, 48 h
The source made the active and inactive calls. Rule as the data show it: active = GI50 up to about 1.1 µM and inactive = higher.

molecule	GI50
COC(=O)c1nsc(OC)c1Cl	> 100 µM (inactive)
COc1cc2oc(=O)cc(C)c2cc1OC	> 100 µM (inactive)
CC1(C)CCC[C@@]2(C)C1C(=O)[C@@H]1O[C@]1(C)[C@@H]2CO (stereo partly specified)	43.8 µM (inactive)
COc1cc2c(cc1O)C(C)Cc1cc3c(cc1N(C)CC2)OCO3 (stereo unspecified)	6.15 µM (inactive)
O=C(c1cccnc1)N1N=C(c2ccc3c(c2)OCO3)CC1(O)c1cc(F)c(Cl)cc1Cl (stereo unspecified)	21.1 µM (inactive)
CCCCc1ccc(Nc2nc3c(ncn3COCCBr)c(=O)[nH]2)cc1	> 100 µM (inactive)
COc1ccc(C(=O)OC2C=COC(C)C2OC(=O)c2ccc(OC)cc2)cc1 (stereo unspecified)	21 µM (inactive)
NC(=O)c1nnsc1N/N=C/c1ccc([N+](=O)[O-])cc1	> 100 µM (inactive)
O=C(Cn1c2c(c3ccccc31)CCCC2)N1CCCCC1	> 100 µM (inactive)
O=C(O)c1nc(-c2ccccc2)ncc1-c1nnnn1-c1ccccc1	> 100 µM (inactive)
Cc1cc(N(CCC#N)S(=O)(=O)c2ccccc2)ccc1C=O	> 100 µM (inactive)

----------
system: PC-3; assay: NCI tumour cell line growth inhibition, 48 h
Activity calls are given as the source filed them. No stated cut-off is given here; in the data, active = GI50 up to about 1.1 µM and inactive = higher.
Outcomes: yes (1) for active, no (0) for inactive

compound	assayed system	qualitative label
COc1cc(C2c3cc4c(cc3C(O)C3CCC(=O)N23)OCO4)cc(OC)c1OC (centres undefined)	PC-3	no (0)
COc1ccc2c(c1)SC1=Nc3sc4cc(OC)ccc4[n+]3CN12	PC-3	no (0)
COC(=O)CC1C(C)(C)C(=O)C2CC3=C4CC(=O)OC(c5ccoc5)C4(C)CCC3C1(C)C2=O (centres undefined)	PC-3	no (0)
CC1ON2CCCC2[C@H]1C(=O)N1C2CC3CCC2(CS1(=O)=O)C3(C)C (some centres undefined)	PC-3	no (0)
O=C(Nc1ccccc1)Nn1c(-c2cccs2)nc2ccc(I)cc2c1=O	PC-3	no (0)
COC(=O)NC(Cc1ccccc1)NC(=O)OC(C)(C)C (centres undefined)	PC-3	no (0)
CN/C(=N\c1ccc(OC)c2ccccc12)SC	PC-3	no (0)
COC(C/C=C\C=C\CC/C=C/CC(C)/C=C/C(=C\C(=O)O)CC(=O)O)/C(C)=C\C=C(/C)C(=O)O (centres undefined)	PC-3	no (0)
COc1cc(C2OC(N)=C(C#N)C3=C2C(C)CCC3)cc(OC)c1OC (centres undefined)	PC-3	no (0)
CCCN(CCc1ccc(-c2ccccc2)cc1)CCc1ccc2nn[nH]c2c1	PC-3	no (0)
COC(=O)C1=Nc2c(C)nn(-c3ccccc3)c2N=C(c2ccc([N+](=O)[O-])cc2)C1	PC-3	no (0)
CC(=O)Nc1ccc2nc(N)n[n+]([O-])c2c1	PC-3	no (0)
CCCCOc1ccc(/C=C/C2=[N+](CCO)CCO2)cc1	PC-3	no (0)
COC(c1ccc(C(C)(C)C)cc1)(c1ccc(C(C)(C)C)cc1)c1cc(C(O)(c2cc(C(OC)(c3ccc(C(C)(C)C)cc3)c3ccc(C(C)(C)C)cc3)c(C)cc2C)c2cc(C(OC)(c3ccc(C(C)(C)C)cc3)c3ccc(C(C)(C)C)cc3)c(C)cc2C)c(C)cc1C	PC-3	no (0)
N=c1oc2ccccc2cc1C(=O)Nc1nccs1	PC-3	no (0)
c1ccc2c(c1)nnn2CN1CCOCC1	PC-3	no (0)
O=C/C=C/c1ccco1	PC-3	no (0)
C#CCCCC(=O)N(C(=O)C[S+]([O-])CC)c1ccccc1 (centres undefined)	PC-3	no (0)
Nc1ccccc1C(=O)NNC(=O)c1ccccc1N	PC-3	no (0)
COc1ccc2nc3ccccc3c(NCCCN(C)CCCl)c2c1	PC-3	yes (1)
O=C1c2ccccc2C(=O)c2c(OCC3CO3)ccc(OCC3CO3)c21 (centres undefined)	PC-3	no (0)
O=C1c2ccccc2C(=O)N1CCCSc1ccccc1	PC-3	no (0)
O=C(NO)c1ccc(C(=O)NO)cc1	PC-3	no (0)
C[N+](C)(C)CC1CCC(C[N+](C)(C)C)C1=O (centres undefined)	PC-3	no (0)

----------
test system: HOP-92; assay: NCI tumour cell line growth inhibition, 48 h
The source made the active and inactive calls. No stated cut-off is given here; in the data, active = GI50 up to about 1.1 µM and inactive = higher.
Outcomes: active, inactive

compound	qualitative label
Nc1cc(N)c(/N=N/c2cccc3c(S(=O)(=O)O)cccc23)cc1/N=N/c1cc([N+](=O)[O-])ccc1O	inactive
Cn1c2ccccc2c2[nH]cc3nc4ccccc4c-3c21	inactive
CN(C)c1ccc(/C(F)=C(F)/C(F)=C(F)/C(F)=C(\F)c2ccc(Br)cc2)cc1	inactive
NC1=NNC2(C(N)=N1)c1ccccc1-c1ccccc12	inactive
COC1(OC)N=C(N)C2(C#N)C(C)=C3NCN(C)N=C3C12C#N (stereo not drawn)	inactive
C/C(Sc1ccccc1)=C1/CCCN(Cc2ccccc2)C1	inactive
COc1ccc2c(c1)SC1=Nc3sc4cc(OC)ccc4[n+]3CN12	inactive
COc1ccc2c(c1)C1=NCCN(CCO)c3ccc([N+](=O)[O-])c(c31)N2	active

src = ChEMBL document CHEMBL1201862
